target: UniProtKB O60885; experiment: Time Resolved Fluorescence Resonance Energy Transfer (TR-FRET) binding assay, FRET BRD4; conditions: one of the FRET assays described (BRD4 bromodomain construct not specified); read-out: FRET BRD4 IC50

molecule: Cc1nnn(C)c1-c1cnc2c3ccc(N4CCC(F)(F)CC4)cc3n([C@H](c3ccccc3)C3CCOCC3)c2c1 [Example 71]
IC50: < 1 nM
--
molecule: COc1nnn(C)c1-c1ccc2c3ncc(-c4c(OC)nnn4C)cc3n([C@H](c3ccccc3)C3CCOCC3)c2c1 [Example 32]
IC50: < 1 nM
--
molecule: [2H]C([2H])([2H])c1nnn(C)c1-c1cnc2c3cc(N4CCS(=O)(=O)[C@@H](C)C4)ccc3n([C@H](c3ccccc3F)C3CCOCC3)c2c1 [Example 52]
IC50: < 1 nM
--
molecule: Cc1n[nH]c(C)c1-c1ccc2c3ncc(-c4c(C)nnn4C)cc3n([C@H](c3ccccc3)C3CCOCC3)c2c1 [Example 17]
IC50: < 1 nM
--
molecule: Cc1nnn(C)c1-c1cnc2c3ccc(N4CCC(C(F)(F)F)CC4)cc3n(C(c3ccccc3)C3CCC(F)(F)CC3)c2c1 (single isomer, unassigned) [Example 78]
IC50: < 5 nM
--
molecule: [2H]C([2H])([2H])c1nnn(C)c1-c1cnc2c3c(N4CCCS4(=O)=O)ccc(S(C)(=O)=O)c3n(C(c3ncccc3F)C3CCOCC3)c2c1 (stereo not drawn) [Example 36]
IC50: < 1500 nM
